Exercise: state measured pIC50 for each of the molecules provided.
Test system: MCF7
ASSAY_DETAILS: Colony formation / cell survival assay, MCF7 breast cancer cells
APPLIED_CONDITIONS: Homo sapiens, MCF7, 4 h, read-out: ED50, MCF7, 4 h exposure, FIG. 8
Numbers only, as −log10 of the molar value.

>  <MOLECULE>
CC1OC2=C(C(=O)C(=O)c3ccccc32)C1C (centres unmarked)

>  <pIC50>
5.85

$$$$

Moving on to another molecule below.
Dear colleague, I am looking for the recorded pIC50 of the following molecule: CC1OC2=C(C(=O)C(=O)c3ccccc32)C1(C)C (centres unmarked) 5.85

Where these numbers come from: patent US5824700A
